# testedTarget: Substance-K receptor (Oryctolagus cuniculus, UniProt P79218)
# Sequence (P79218 whole entry): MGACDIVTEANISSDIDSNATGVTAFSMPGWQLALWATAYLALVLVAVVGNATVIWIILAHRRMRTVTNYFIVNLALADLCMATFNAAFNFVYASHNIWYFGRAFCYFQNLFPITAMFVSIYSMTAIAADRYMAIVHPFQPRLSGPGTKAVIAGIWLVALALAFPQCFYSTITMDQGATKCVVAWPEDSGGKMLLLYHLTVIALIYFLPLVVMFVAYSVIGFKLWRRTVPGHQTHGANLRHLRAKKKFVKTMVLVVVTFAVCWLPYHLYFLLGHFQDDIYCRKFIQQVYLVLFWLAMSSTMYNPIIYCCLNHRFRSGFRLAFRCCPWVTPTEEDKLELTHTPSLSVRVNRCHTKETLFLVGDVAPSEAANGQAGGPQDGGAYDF
# testMethodNotes: Tested for antagonist activity against NK-2 receptor in rabbit pulmonary artery by using Neurokinin A as agonist
# Type: functional
# testConditions: read-out: pA2 (converted)
measuredEndpoint: Kb (µM)

| compound | Kb / µM |
| --- | --- |
| CN(Cc1ccccc1)C(=O)[C@H](Cc1ccccc1)NC(=O)[C@@H](Cc1cn(C(=O)OC(C)(C)C)c2ccccc12)NC(=O)C[C@@H]1NC(=O)[C@@H]2C3CCC(CC3)N2C1=O | 12.6 |

P = CN(Cc1ccccc1)C(=O)[C@H](Cc1ccccc1)NC(=O)[C@@H](Cc1cn(C(=O)CCC(=O)O)c2ccccc12)NC(=O)C[C@@H]1NC(=O)[C@@H]2C3CCC(CC3)N2C1=O
Q = CC(=O)N[C@H](C(=O)N[C@H](Cc1cn(C=O)c2ccccc12)C(=O)N[C@@H](Cc1ccccc1)C(=O)N(C)Cc1ccccc1)C(C)O (stereo not given in full)
R = CN(Cc1ccccc1)C(=O)[C@H](Cc1ccccc1)NC(=O)[C@@H](Cc1cn(C(=O)OCCCCCCN)c2ccccc12)NC(=O)C[C@@H]1NC(=O)[C@@H]2C3CCC(CC3)N2C1=O
S = CN(Cc1ccccc1)C(=O)[C@H](Cc1ccccc1)NC(=O)[C@@H](Cc1cn(C(=O)OCc2ccccc2)c2ccccc12)NC(=O)C[C@@H]1NC(=O)[C@@H]2C3CCC(CC3)N2C1=O
Ordering criterion: Kb; begin with the maximum. API: response body holds the labels in the requested order.
P, R, Q, S
(P: 15.8 µM, R: 10 µM, Q: 3.98 µM, S: 1.26 µM)

----------
# testedTarget: Neuromedin-K receptor (Rattus norvegicus)
# Sequence (P16177 whole entry): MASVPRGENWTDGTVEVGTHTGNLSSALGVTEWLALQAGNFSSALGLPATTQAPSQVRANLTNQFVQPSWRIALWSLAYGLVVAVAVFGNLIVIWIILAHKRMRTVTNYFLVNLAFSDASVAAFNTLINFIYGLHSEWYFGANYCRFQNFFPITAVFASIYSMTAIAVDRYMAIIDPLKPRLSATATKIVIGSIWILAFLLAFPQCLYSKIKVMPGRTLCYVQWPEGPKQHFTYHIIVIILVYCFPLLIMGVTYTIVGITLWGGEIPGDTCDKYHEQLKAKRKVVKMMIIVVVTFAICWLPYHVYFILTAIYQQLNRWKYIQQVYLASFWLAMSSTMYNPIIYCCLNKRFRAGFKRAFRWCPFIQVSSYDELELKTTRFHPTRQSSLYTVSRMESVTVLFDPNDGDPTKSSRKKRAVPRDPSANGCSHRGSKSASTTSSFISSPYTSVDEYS
# testMethodNotes: Tested for antagonist activity against NK-3 receptor in rat portal vein by using Neurokinin B as agonist
# Type: functional
# testConditions: read-out: pA2 (converted)
measuredEndpoint: Kb (µM)

| testSmiles | Kb (µM) |
| --- | --- |
| CN(Cc1ccccc1)C(=O)[C@H](Cc1ccccc1)NC(=O)[C@@H](Cc1cn(C(=O)CCCCCCN)c2ccccc12)NC(=O)C[C@@H]1NC(=O)[C@@H]2C3CCC(CC3)N2C1=O | 2 |

I = CN(Cc1ccccc1)C(=O)[C@H](Cc1ccccc1)NC(=O)[C@@H](Cc1cn(C=O)c2ccccc12)NC(=O)C[C@@H]1NC(=O)[C@@H]2C3CCC(CC3)N2C1=O
II = CC(=O)n1cc(C[C@@H](NC(=O)C[C@@H]2NC(=O)[C@@H]3C4CCC(CC4)N3C2=O)C(=O)N[C@@H](Cc2ccccc2)C(=O)N(C)Cc2ccccc2)c2ccccc21
Hey, between I and II which has a smaller measured Kb? Returns: label corresponding to the selected item.
II
(II: 0.1 µM, I: 12.6 µM)

----------
# testedTarget: Substance-P receptor (Oryctolagus cuniculus)
# testMethodNotes: Tested for antagonist activity against NK1 receptor in rabbit vena cava by using substance P (SP) as agonist
# testConditions: read-out: pA2 (converted)
measuredEndpoint: Kb (µM)

a = CC(=O)n1cc(C[C@@H](NC(=O)C[C@@H]2NC(=O)[C@@H]3C4CCC(CC4)N3C2=O)C(=O)N[C@@H](Cc2ccccc2)C(=O)N(C)Cc2ccccc2)c2ccccc21
b = CN(Cc1ccccc1)C(=O)[C@H](Cc1ccccc1)NC(=O)[C@@H](Cc1cn(C(=O)OCc2ccccc2)c2ccccc12)NC(=O)C[C@@H]1NC(=O)[C@@H]2C3CCC(CC3)N2C1=O
I'm curious whether a or b has the smaller Kb number. Which is it? When you have decided, please share the label of that item.
a
(a: 0.0501 µM, b: 0.158 µM)

1 = CN(Cc1ccccc1)C(=O)[C@H](Cc1ccccc1)NC(=O)[C@@H](Cc1cn(C(=O)OCCCCCCN)c2ccccc12)NC(=O)C[C@@H]1NC(=O)[C@@H]2C3CCC(CC3)N2C1=O
2 = CN(Cc1ccccc1)C(=O)[C@H](Cc1ccccc1)NC(=O)[C@@H](Cc1cn(C(=O)CCC(=O)O)c2ccccc12)NC(=O)C[C@@H]1NC(=O)[C@@H]2C3CCC(CC3)N2C1=O
Could you tell me which of these two has the smaller Kb figure? First: 1 Second: 2 Which one? Tell me its label.
1
(1: 0.0398 µM, 2: 0.126 µM)
